Can you tell me MIC for the items I'm about to list?
System: Escherichia coli
Assay: Antibacterial activity against Escherichia coli ATCC 25922 after 18 hrs by agar dilution method
Assay type: functional
Details: ATCC 25922, 18 h
Bridge positions count the residues as written; N and C are the ends. Square brackets hold non-standard residues; d marks the D form. Peptide text beside a SMILES is read from it. * marks the point of attachment. Heptanoyl(6-Me) = CC(C)CCCCC(=O)*; Nonanoyl = CCCCCCCCC(=O)*; X1 = CC[C@H](C)CCCCC(=O)*; dDab = NCC[C@@H](N)C(=O)O; Octanoyl = CCCCCCCC(=O)*; Dab = NCC[C@H](N)C(=O)O
The answer is to be given in µg/mL; state only the numeric part.

Specify MIC for CCCCCCCCC(=O)N[C@@H](CCN)C(=O)N[C@H](C(=O)N[C@@H](CCN)C(=O)N[C@H]1CCNC(=O)[C@H]([C@@H](C)O)NC(=O)[C@H](CCN)NC(=O)[C@H](CCN)NC(=O)[C@H](CC(C)C)NC(=O)[C@@H](Cc2ccccc2)NC(=O)[C@H](CCN)NC1=O)[C@@H](C)O [POLYMYXIN B5] (Nonanoyl-[Dab]T[Dab][Dab][Dab][dF]L[Dab][Dab]T; lactam 4-C) and stop.
2

Specify MIC for CCCCCCCC(=O)N[C@@H](CCN)C(=O)N[C@H](C(=O)N[C@@H](CCN)C(=O)N[C@H]1CCNC(=O)[C@H]([C@@H](C)O)NC(=O)[C@H](CCN)NC(=O)[C@H](CCN)NC(=O)[C@H](CC(C)C)NC(=O)[C@@H](Cc2ccccc2)NC(=O)[C@H](CCN)NC1=O)[C@@H](C)O (Octanoyl-[Dab]T[Dab][Dab][Dab][dF]L[Dab][Dab]T; lactam 4-C) and stop.
0.5

Specify MIC for CC[C@H](C)CCCCC(=O)N[C@@H](CCN)C(=O)N[C@H](C(=O)N[C@@H](CCN)C(=O)N[C@H]1CCNC(=O)[C@H]([C@@H](C)O)NC(=O)[C@H](CCN)NC(=O)[C@H](CCN)NC(=O)[C@H](C(C)C)NC(=O)[C@@H](CC(C)C)NC(=O)[C@H](CCN)NC1=O)[C@@H](C)O (X1-[Dab]T[Dab][Dab][Dab][dL]V[Dab][Dab]T; lactam 4-C) and stop.
0.5

Specify MIC for CC(C)CCCCC(=O)N[C@@H](CCN)C(=O)N[C@H](C(=O)N[C@H](CO)C(=O)N[C@H]1CCNC(=O)[C@H]([C@@H](C)O)NC(=O)[C@H](CCN)NC(=O)[C@H](CCN)NC(=O)[C@H]([C@@H](C)O)NC(=O)[C@@H](Cc2ccccc2)NC(=O)[C@H](CCN)NC1=O)[C@@H](C)O ({Heptanoyl(6-Me)}-[Dab]T[dS][Dab][Dab][dF]T[Dab][Dab]T; lactam 4-C) and stop.
0.25

Specify MIC for CC[C@H](C)[C@@H]1NC(=O)[C@@H](CC(C)C)NC(=O)[C@H](CCN)NC(=O)[C@@H](NC(=O)[C@H](CCN)NC(=O)[C@@H](NC(=O)[C@H](CCN)NC(=O)CCCCC(C)C)[C@@H](C)O)CCNC(=O)[C@H]([C@@H](C)O)NC(=O)[C@H](CCN)NC(=O)[C@H](CCN)NC1=O and stop.
1

Specify MIC for CC[C@H](C)CCCCC(=O)N[C@@H](CCN)C(=O)N[C@H](C(=O)N[C@H](CCN)C(=O)N[C@H]1CCNC(=O)[C@H]([C@@H](C)O)NC(=O)[C@H](CCN)NC(=O)[C@H](CCN)NC(=O)[C@H]([C@@H](C)O)NC(=O)[C@@H](CC(C)C)NC(=O)[C@H](CCN)NC1=O)[C@@H](C)O (X1-[Dab]T[dDab][Dab][Dab][dL]T[Dab][Dab]T; lactam 4-C) and stop.
0.5

====

Tested on: Escherichia coli
Test: Antibacterial activity against extended-spectrum beta-lactamase producing Escherichia coli isolate 14-11 after 18 hrs by agar dilution method
Type: functional
Settings: isolate 14-11, 18 h
Bridge positions count the residues as written; N and C are the ends. Square brackets hold non-standard residues; d marks the D form. Peptide text beside a SMILES is read from it. * marks the point of attachment. Octanoyl = CCCCCCCC(=O)*; Dab = NCC[C@H](N)C(=O)O
MEASURED_METRIC: MIC

Specify MIC for CCCCCCCC(=O)N[C@@H](CCN)C(=O)N[C@H](C(=O)N[C@@H](CCN)C(=O)N[C@H]1CCNC(=O)[C@H]([C@@H](C)O)NC(=O)[C@H](CCN)NC(=O)[C@H](CCN)NC(=O)[C@H](CC(C)C)NC(=O)[C@@H](Cc2ccccc2)NC(=O)[C@H](CCN)NC1=O)[C@@H](C)O (Octanoyl-[Dab]T[Dab][Dab][Dab][dF]L[Dab][Dab]T; lactam 4-C) and stop.
1 µg/mL

====

Tested on: Pseudomonas aeruginosa
Test: Antibacterial activity against Pseudomonas aeruginosa ATCC 27853 after 18 hrs by agar dilution method
Assay type: functional
Settings: ATCC 27853, 18 h
Bridge positions count the residues as written; N and C are the ends. Square brackets hold non-standard residues; d marks the D form. Peptide text beside a SMILES is read from it. * marks the point of attachment. Heptanoyl(6-Me) = CC(C)CCCCC(=O)*; X1 = CC[C@H](C)CCCCC(=O)*; dDab = NCC[C@@H](N)C(=O)O; Dab = NCC[C@H](N)C(=O)O
Can you tell me MIC for the items I'm about to list?
The answer is to be given in µg/mL; state only the numeric part.

Specify MIC for CC[C@H](C)CCCCC(=O)N[C@@H](CCN)C(=O)N[C@H](C(=O)N[C@@H](CCN)C(=O)N[C@H]1CCNC(=O)[C@H]([C@@H](C)O)NC(=O)[C@H](CCN)NC(=O)[C@H](CCN)NC(=O)[C@H](CC(C)C)NC(=O)[C@@H](Cc2ccccc2)NC(=O)[C@H](CCN)NC1=O)[C@@H](C)O (X1-[Dab]T[Dab][Dab][Dab][dF]L[Dab][Dab]T; lactam 4-C) and stop.
2

Specify MIC for CC(C)CCCCC(=O)N[C@@H](CCN)C(=O)N[C@H](C(=O)N[C@H](CO)C(=O)N[C@H]1CCNC(=O)[C@H]([C@@H](C)O)NC(=O)[C@H](CCN)NC(=O)[C@H](CCN)NC(=O)[C@H]([C@@H](C)O)NC(=O)[C@@H](Cc2ccccc2)NC(=O)[C@H](CCN)NC1=O)[C@@H](C)O ({Heptanoyl(6-Me)}-[Dab]T[dS][Dab][Dab][dF]T[Dab][Dab]T; lactam 4-C) and stop.
2

Specify MIC for CC[C@H](C)CCCCC(=O)N[C@@H](CCN)C(=O)N[C@H](C(=O)N[C@H](CCN)C(=O)N[C@H]1CCNC(=O)[C@H]([C@@H](C)O)NC(=O)[C@H](CCN)NC(=O)[C@H](CCN)NC(=O)[C@H]([C@@H](C)O)NC(=O)[C@@H](CC(C)C)NC(=O)[C@H](CCN)NC1=O)[C@@H](C)O (X1-[Dab]T[dDab][Dab][Dab][dL]T[Dab][Dab]T; lactam 4-C) and stop.
1

====

Can you tell me MIC for the items I'm about to list?
System: Escherichia coli
Experiment: Antibacterial activity against Escherichia coli ATCC 25922 after 18 hrs by agar dilution method
Format: functional
Settings: ATCC 25922, 18 h
Bridge positions count the residues as written; N and C are the ends. Square brackets hold non-standard residues; d marks the D form. Peptide text beside a SMILES is read from it. * marks the point of attachment. Heptanoyl(6-Me) = CC(C)CCCCC(=O)*; Octanoyl(7-Me) = CC(C)CCCCCC(=O)*; X1 = CC[C@H](C)CCCCC(=O)*; Octanoyl = CCCCCCCC(=O)*; Dab = NCC[C@H](N)C(=O)O; Nva = CCC[C@H](N)C(=O)O
The answer is to be given in µg/mL; state only the numeric part.

Specify MIC for CC[C@H](C)CCCCC(=O)N[C@@H](CCN)C(=O)N[C@H](C(=O)N[C@H](CO)C(=O)N[C@H]1CCNC(=O)[C@H]([C@@H](C)O)NC(=O)[C@H](CCN)NC(=O)[C@H](CCN)NC(=O)[C@H]([C@@H](C)O)NC(=O)[C@@H](CC(C)C)NC(=O)[C@H](CCN)NC1=O)[C@@H](C)O (X1-[Dab]T[dS][Dab][Dab][dL]T[Dab][Dab]T; lactam 4-C) and stop.
0.12

Specify MIC for CCCCCCCC(=O)N[C@@H](CCN)C(=O)N[C@H](C(=O)N[C@@H](CCN)C(=O)N[C@H]1CCNC(=O)[C@H]([C@@H](C)O)NC(=O)[C@H](CCN)NC(=O)[C@H](CCN)NC(=O)[C@H](CC(C)C)NC(=O)[C@@H](CC(C)C)NC(=O)[C@H](CCN)NC1=O)[C@@H](C)O (Octanoyl-[Dab]T[Dab][Dab][Dab][dL]L[Dab][Dab]T; lactam 4-C) and stop.
0.5

Specify MIC for CC(C)CCCCCC(=O)N[C@@H](CCN)C(=O)N[C@H](C(=O)N[C@@H](CCN)C(=O)N[C@H]1CCNC(=O)[C@H]([C@@H](C)O)NC(=O)[C@H](CCN)NC(=O)[C@H](CCN)NC(=O)[C@H](CC(C)C)NC(=O)[C@@H](CC(C)C)NC(=O)[C@H](CCN)NC1=O)[C@@H](C)O ({Octanoyl(7-Me)}-[Dab]T[Dab][Dab][Dab][dL]L[Dab][Dab]T; lactam 4-C) and stop.
1

Specify MIC for CCC[C@@H]1NC(=O)[C@@H](CC(C)C)NC(=O)[C@H](CCN)NC(=O)[C@@H](NC(=O)[C@H](CCN)NC(=O)[C@@H](NC(=O)[C@H](CCN)NC(=O)CCCCC(C)C)[C@@H](C)O)CCNC(=O)[C@H]([C@@H](C)O)NC(=O)[C@H](CCN)NC(=O)[C@H](CCN)NC1=O ({Heptanoyl(6-Me)}-[Dab]T[Dab][Dab][Dab][dL][Nva][Dab][Dab]T; lactam 4-C) and stop.
0.5

Specify MIC for CC(C)CCCCC(=O)N[C@@H](CCN)C(=O)N[C@H](C(=O)N[C@H](CO)C(=O)N[C@H]1CCNC(=O)[C@H]([C@@H](C)O)NC(=O)[C@H](CCN)NC(=O)[C@H](CCN)NC(=O)[C@H]([C@@H](C)O)NC(=O)[C@@H](CC(C)C)NC(=O)[C@H](CCN)NC1=O)[C@@H](C)O ({Heptanoyl(6-Me)}-[Dab]T[dS][Dab][Dab][dL]T[Dab][Dab]T; lactam 4-C) and stop.
0.25

Provenance of the data: ChEMBL document CHEMBL4118103
